Attribution: patent US20240043386A1

TARGET UNDER TEST: F508delCFTR (Homo sapiens, UniProt P13569, DEL508-508)
Construct: expressed in transfected cells; host or cells: CFBE41o- human lung-derived epithelial cell line, doxycycline-inducible expression
Sequence (P13569 with tags, fused parts or gaps DEL508-508): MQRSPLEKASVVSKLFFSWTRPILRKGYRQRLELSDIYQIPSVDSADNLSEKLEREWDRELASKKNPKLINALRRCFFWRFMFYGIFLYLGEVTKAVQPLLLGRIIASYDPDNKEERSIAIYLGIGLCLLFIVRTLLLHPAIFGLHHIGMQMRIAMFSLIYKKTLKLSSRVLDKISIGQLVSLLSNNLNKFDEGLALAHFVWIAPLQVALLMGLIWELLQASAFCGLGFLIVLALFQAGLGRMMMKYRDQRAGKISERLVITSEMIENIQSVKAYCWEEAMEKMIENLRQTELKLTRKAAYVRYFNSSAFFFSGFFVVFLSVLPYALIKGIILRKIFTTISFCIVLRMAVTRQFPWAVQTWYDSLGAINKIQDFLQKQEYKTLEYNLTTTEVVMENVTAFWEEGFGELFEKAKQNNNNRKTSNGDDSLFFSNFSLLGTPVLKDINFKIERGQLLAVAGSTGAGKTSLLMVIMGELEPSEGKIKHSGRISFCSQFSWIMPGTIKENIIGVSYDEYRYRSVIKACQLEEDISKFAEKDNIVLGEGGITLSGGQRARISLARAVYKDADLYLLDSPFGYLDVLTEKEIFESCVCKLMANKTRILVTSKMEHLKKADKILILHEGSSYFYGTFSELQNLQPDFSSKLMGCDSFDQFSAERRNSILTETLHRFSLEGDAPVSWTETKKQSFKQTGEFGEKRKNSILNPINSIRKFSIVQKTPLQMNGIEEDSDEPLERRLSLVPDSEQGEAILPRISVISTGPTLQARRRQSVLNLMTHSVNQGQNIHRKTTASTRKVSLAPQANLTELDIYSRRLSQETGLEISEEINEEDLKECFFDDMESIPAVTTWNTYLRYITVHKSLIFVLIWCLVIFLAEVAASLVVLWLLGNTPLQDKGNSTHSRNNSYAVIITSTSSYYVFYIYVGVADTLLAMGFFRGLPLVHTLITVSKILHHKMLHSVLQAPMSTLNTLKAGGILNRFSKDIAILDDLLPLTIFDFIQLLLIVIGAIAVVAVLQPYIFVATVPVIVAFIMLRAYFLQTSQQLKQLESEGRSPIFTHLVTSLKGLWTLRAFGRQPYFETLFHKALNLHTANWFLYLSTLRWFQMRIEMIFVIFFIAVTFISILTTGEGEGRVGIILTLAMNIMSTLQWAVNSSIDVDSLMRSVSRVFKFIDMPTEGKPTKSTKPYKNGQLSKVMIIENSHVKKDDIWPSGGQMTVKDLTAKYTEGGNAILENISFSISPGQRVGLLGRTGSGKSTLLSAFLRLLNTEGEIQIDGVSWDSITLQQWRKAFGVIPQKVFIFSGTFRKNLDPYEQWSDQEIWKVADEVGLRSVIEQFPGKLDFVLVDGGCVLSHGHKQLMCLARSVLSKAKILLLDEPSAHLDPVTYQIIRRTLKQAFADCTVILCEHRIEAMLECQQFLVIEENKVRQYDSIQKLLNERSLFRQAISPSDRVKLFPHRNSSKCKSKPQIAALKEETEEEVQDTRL
ASSAY OVERVIEW: Cell Surface Expression-Horse Radish Peroxidase (CSE-HRP) assay in CFBE41o-F508delCFTR-HRP cells
Assay type: cell-based
MEASUREMENT PARAMETERS: with co-corrector (2 μM); normalized to on-plate positive control corrector (2 μM)
MEASUREMENT NAME: Maximum % activity (with co-corrector) (%)

COc1ccc(C)cc1[C@@]1(C(=O)NS(=O)(=O)c2cccc3nc(C)ccc23)C[C@H]1c1cnc(C)c(F)c1 (single isomer, unassigned) [Example 101] = 842
COc1ccc(C)cc1[C@@]1(C(=O)NS(=O)(=O)c2cccc3nc(C)ccc23)C[C@H]1c1cccnc1OC (racemic) [Example 40] = 934
COc1ncc([C@H]2C[C@@]2(C(=O)NS(=O)(=O)c2cccc3nc(C)ccc23)c2cc(C)ccc2OC)cn1 (single isomer, unassigned) [Example 38] = 995
CCOc1cccc([C@@H]2C[C@]2(C(=O)NS(=O)(=O)c2cccc3nc(C)ccc23)c2cc(C)ccc2OC)n1 [Example 56] = 917
COc1ncc([C@@H]2C[C@]2(C(=O)NS(=O)(=O)c2cccc3nc(C)ccc23)c2cc(C)ccc2OC)cn1 (racemic) [Example 36] = 666
CCOc1cnc([C@@H]2C[C@]2(C(=O)NS(=O)(=O)c2cccc3nc(C)ccc23)c2cc(C)ccc2OC)cn1 (single isomer, unassigned) [Example 65] = 828
